# Study system: T1, huMICA*002 alpha 3-his (human)
# T1 construct: whole construct entry: GS, alpha 3 domain, GNS, His8; also called MICA002.His; MICA*002 alpha3 construct
# T1 chain: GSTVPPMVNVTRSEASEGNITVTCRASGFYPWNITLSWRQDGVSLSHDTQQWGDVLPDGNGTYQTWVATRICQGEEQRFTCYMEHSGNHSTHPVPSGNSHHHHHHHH
# Method summary: SPR, Biacore 8K, antibody on Protein A chip

Binder	Kd / nM
1D5v10 (antibody, IgG1, V domains shown, humanized variant of 1D5) VH: EVQLVQSGAEVKKPGASVKVSCKASGYAFTSQNIYWVRQAPGQGLEWMGYIEPYNVVPMYNPKFKGRVTMTTDTSTSTAYMELRSLRSDDTAVYYCARSGSSNFDYWGQGTLVTVSS VL: DIQLTQSPSSLSASVGDRVTITCSASSSISSHYLHWYQQKPGKSPKLLIYRTSNLASGVPSRFSGSGSGTDYTLTISSLQPEDFATYYCQQGSSLPLTFGQGTKVEIK	1.44
1D5v22 (antibody, IgG1, V domains shown, humanized variant of 1D5) VH: EIQLVQSGAEVKKPGASVKVSCKASGYAFTSQNIYWVRQAPGQGLEWIGYIEPYNVVPMYNPKFKGRATLTRDKSTSTAYLELSSLRSEDTAVYYCARSGSSNFDYWGQGTLVTVSS VL: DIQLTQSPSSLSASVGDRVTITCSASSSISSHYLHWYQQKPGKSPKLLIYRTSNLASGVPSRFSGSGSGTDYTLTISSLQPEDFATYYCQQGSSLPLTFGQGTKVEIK	6.46
1D5v12 (antibody, IgG1, V domains shown, humanized variant of 1D5) VH: EVQLVQSGAEVKKPGASVKVSCKASGYAFTSQNIYWVRQAPGQGLEWIGYIEPYNVVPMYNPKFKGRVTITRDTSTSTAYLELSSLRSEDTAVYYCARSGSSNFDYWGQGTLVTVSS VL: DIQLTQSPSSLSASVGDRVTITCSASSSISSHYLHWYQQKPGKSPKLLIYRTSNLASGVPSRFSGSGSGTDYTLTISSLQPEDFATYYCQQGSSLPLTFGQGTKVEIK	4.64
1D5v1 (antibody, IgG1, V domains shown, humanized variant of 1D5; also called lD5v1) VH: EIQLVQSGAEVKKPGASVKVSCKASGYAFTSQNIYWVRQAPGQGLEWIGYIEPYNVVPMYNPKFKGRATLTVDKSTSTAYMELRSLRSDDTAVYYCARSGSSNFDYWGQGTLVTVSS VL: EIVLTQSPDFQSVTPKEKVTITCSASSSISSHYLHWYQQKPDQSPKLLIYRTSNLASGVPSRFSGSGSGTDYTLTINSLEAEDAATYYCQQGSSLPLTFGQGTKVEIK	1.4
1D5v26 (antibody, IgG1, V domains shown, humanized variant of 1D5) VH: EVQLVQSGAEVKKPGASVKVSCKASGYAFTSQNIYWVRQAPGQGLEWIGYIEPYNVVPMYNPKFKGRVTITRDKSTSTAYLELSSLRSEDTAVYYCARSGSSNFDYWGQGTLVTVSS VL: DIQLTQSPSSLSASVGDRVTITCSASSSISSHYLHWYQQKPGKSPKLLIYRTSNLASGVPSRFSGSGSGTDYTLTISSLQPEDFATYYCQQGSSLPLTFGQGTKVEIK	3.9
1D5v2 (antibody, IgG1, V domains shown, humanized variant of 1D5) VH: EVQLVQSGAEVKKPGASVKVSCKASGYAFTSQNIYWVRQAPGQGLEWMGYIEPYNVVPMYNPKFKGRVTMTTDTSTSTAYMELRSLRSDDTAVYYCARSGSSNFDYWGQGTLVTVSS VL: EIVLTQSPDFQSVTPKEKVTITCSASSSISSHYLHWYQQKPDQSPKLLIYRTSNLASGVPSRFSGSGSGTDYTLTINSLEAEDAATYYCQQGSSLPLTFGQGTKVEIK	1.69
1D5v15 (antibody, IgG1, V domains shown, humanized variant of 1D5) VH: EIQLVQSGAEVKKPGASVKVSCKASGYAFTSQNIYWVRQAPGQGLEWIGYIEPYNVVPMYNPKFKGRATLTVDKSTSTAYLELSSLRSEDTAVYYCARSGSSNFDYWGQGTLVTVSS VL: DIQMTQSPSSLSASVGDRVTITCSASSSISSHYLHWYQQKPGKAPKLLIYRTSNLASGVPSRFSGSGSGTDFTLTISSLQPEDFATYYCQQGSSLPLTFGQGTKVEIK	1.06
1D5v11 (antibody, IgG1, V domains shown, humanized variant of 1D5) VH: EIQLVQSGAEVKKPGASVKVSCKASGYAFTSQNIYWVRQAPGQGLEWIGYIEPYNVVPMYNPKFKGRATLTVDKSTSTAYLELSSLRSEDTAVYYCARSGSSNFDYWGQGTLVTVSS VL: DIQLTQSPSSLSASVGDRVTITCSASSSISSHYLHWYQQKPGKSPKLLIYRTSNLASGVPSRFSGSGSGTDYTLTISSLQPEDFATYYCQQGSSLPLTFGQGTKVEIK	1.09
15F11v4 (antibody, IgG1, V domains shown, humanized variant of 15F11) VH: EIQLVQSGAEVKKPGASVKVSCKPSGYAFTSNNIYWVRQAPGQGLEWIGYIDPYIGRIIYNQQFKDRATLTVDKSTSTAYLELSSLRSEDTAVYYCSRSGERSNFDYWGQGTLVTVSS VL: EIVLTQSPATLSLSPGERATLSCSASSSISSNYLHWYQQKPGQSPRLLIYRTSNLASGVPARFSGSGSGTDYTLTISSLEPEDFAVYYCQQGGSLPLTFGQGTKVEIK	4.75
15F11v3 (antibody, IgG1, V domains shown, humanized variant of 15F11) VH: EVQLVQSGAEVKKPGASVKVSCKASGYAFTSNNIYWVRQAPGQGLEWIGYIDPYIGRIIYNQQFKDRVTITADTSTSTAYLELSSLRSEDTAVYYCSRSGERSNFDYWGQGTLVTVSS VL: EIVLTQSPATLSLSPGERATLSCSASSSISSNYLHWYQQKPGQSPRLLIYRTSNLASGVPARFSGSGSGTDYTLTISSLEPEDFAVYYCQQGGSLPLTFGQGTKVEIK	12.7
